Reference for the values: PubChem BioAssay AID651654

Exercise: for every item that follows, state its recorded lysis activity.
experiment-description: fungicidal lysis via adenylate kinase leakage – AK release luminescence, single concentration, primary screen (AID 651654)
condition-context: C. neoformans lysis, 4 h, at 15 µM, hits give high values, normalised: neutral wells 0, clomiphene wells 100
Out of some 360,000 compounds screened, about 740 (0.21%) were called active. The list comes from a sample in which actives are over-represented; it also holds close analogues and randomly drawn compounds.
Answers are plain numbers, in %.

> print(dat)
                               smiles.entry  data.value
1  COc1ccccc1-c1ccc2n(c1=O)C[C@@H]1[C@@H](CO)[C@H](C(=O)NCc3ccccc3Cl)N[C@H]21      -0.428
2  Cc1ccc(S(=O)(=O)Nc2cccc3c2O[C@@H](CN(C)CC2CCCCC2)[C@H](C)CN([C@@H](C)CO)C3=O)cc1        -1.1

Each compound below has a reported value. Please supply its lysis activity.
1. CO[C@@H](CN(C)C(=O)Nc1ccc(F)cc1)[C@H](C)CN(Cc1ccccc1Cl)[C@@H](C)CO
2. C[C@@H]1CCCCO[C@H](CN(C)C(=O)NC2CCCCC2)[C@H](C)CN([C@H](C)CO)C(=O)c2cc(NC(=O)c3ccncc3)ccc2O1
3. CCC(=O)N(C)C[C@@H]1Oc2ncc(C#CCc3ccccc3)cc2C(=O)N([C@H](C)CO)C[C@H]1C

**Result**
1. 13.4
2. -2.46
3. 1.55

# map each compound to its lysis activity
1. C[C@@H]1CN([C@H](C)CO)C(=O)c2cc(NC(=O)CCCN(C)C)ccc2O[C@H]1CN(C)Cc1ccc(C(=O)O)cc1
2. COc1ccccc1C#Cc1ccc2c(c1)O[C@H](CN(C)Cc1cccnc1)[C@@H](C)CN([C@H](C)CO)S2(=O)=O
3. CO[C@@H]1CN(C)C(=O)c2ccc(NC(=O)C3CC3)cc2OC[C@@H](C)N(CC2CCOCC2)C[C@H]1C
4. CC(C)C#Cc1ccc2c(c1)O[C@H](CN(C)Cc1ccccc1)[C@H](C)CN([C@@H](C)CO)S2(=O)=O

**Result**
1: -1.44; 2: 3.3; 3: 61.5; 4: 14.5

Respectfully, I request lysis activity for each entry included below.
1. O=C(C[C@@H]1C[C@H]2c3cc(NC(=O)Nc4ccccc4)ccc3O[C@H]2[C@@H](CO)O1)NCc1cccnc1
2. Cc1ccc(-c2cnc3c(c2)C(=O)N([C@@H](C)CO)C[C@H](C)[C@H](CN(C)C(=O)c2cccnc2)O3)cc1
3. Cc1cccc(CN(C)C[C@@H]2OCc3cn(nn3)CCCC(=O)N([C@@H](C)CO)C[C@H]2C)c1

**Result**
1: -4.19; 2: -0.96; 3: -1.37

====

experiment-description: fungicidal lysis via adenylate kinase leakage – AK release luminescence, single concentration, primary screen (AID 651654)
condition-context: C. neoformans lysis, 4 h, at 15 µM, hits give high values, normalised: neutral wells 0, clomiphene wells 100
Hit rate of the full screen: of about 360,000 compounds, about 740 (0.21%) were called active. Only a selection was taken, and actives are over-represented in it overall.
readout-type: lysis activity (%)
One number for each entry, in %.

Reference set, count: 3
> print(dat)
                               smiles.entry  data.value
1  C/C=C/c1ccc2c(c1)O[C@@H](CN(C)C(=O)NC1CCCC1)[C@@H](C)CN([C@H](C)CO)S2(=O)=O       -13.9
2  CC(C)NC(=O)N(C)C[C@H]1Oc2cc(-c3cncnc3)ccc2S(=O)(=O)N([C@@H](C)CO)C[C@H]1C       -2.43
3  O=C(C[C@@H]1C[C@@H]2c3cc(NS(=O)(=O)c4ccc(F)cc4)ccc3O[C@@H]2[C@@H](CO)O1)N1CCOCC1       -1.76

Parameter requested: lysis activity. Apply to each item below.
1. CCCC(=O)Nc1ccc2c(c1)C(=O)N(C)[C@@H]1CC[C@H](CC(=O)Nc3cn(C)nc3C)O[C@H]1CO2
2. C[C@H](CO)N1C[C@H](C)[C@@H](CN(C)Cc2ccc(Oc3ccccc3)cc2)Oc2cc(-c3ccncc3)ccc2S1(=O)=O
3. C[C@@H]1CN([C@H](C)CO)C(=O)c2cc(C#CC3CCCC3)cnc2O[C@H]1CN(C)S(C)(=O)=O

**Result**
1. 6.15
2. -0.269
3. -1.11

Look at each molecule and report its lysis activity.
1. C[C@@H]1CN([C@@H](C)CO)S(=O)(=O)c2ccc(C#Cc3ccc(F)cc3)cc2O[C@@H]1CN(C)CC1CC1
2. O=C(C[C@@H]1C=C[C@@H](NC(=O)c2ccc3c(c2)OCO3)[C@H](CO)O1)NC1Cc2ccccc2C1

**Result**
1. 0.211
2. 1.22
